# Test system: spring wheat (TRZAS)
# protocolText: Postemergence greenhouse trial, % visual injury on spring wheat
# Format: in vivo, Triticum aestivum
# protocolConditions: TRZAS; 35 g/ha, applied alone
Measured % visual injury, Ob values are reported for all entries that follow.
recordedMetric: % visual injury, Ob

> print(dat)
                                   compound  endpointvalue
1  CCCCCC(C)OC(=O)COc1ccc(Cl)c2cccnc12 (centres unmarked) [CQC-m, cloquintocet-mexyl, reference compound]             0%
2  Nc1c(F)c(-c2ccc3scnc3c2)nc(C(=O)O)c1Cl [compound 17]            40%
3  COC(=O)c1nc(-c2ccc3sccc3c2)c(F)c(N)c1Cl [compound 18]            50%
4  COc1c(N)nc(-c2ccc3sccc3c2)nc1C(=O)O [compound 19]            40%
5  Nc1c(F)c(-c2ccc3ccoc3c2)nc(C(=O)O)c1Cl [compound 20]            10%

Source listed as patent US9763445B2.
